# subjectOfTest: Human ACC2 (ACC2 (Nd), N terminal deleted) (Homo sapiens)
# Construct: made in house; host or cells: SF-9 insect cells (baculovirus)
# Sequence (O00763 117-2458 limits assumed, stated change not applied): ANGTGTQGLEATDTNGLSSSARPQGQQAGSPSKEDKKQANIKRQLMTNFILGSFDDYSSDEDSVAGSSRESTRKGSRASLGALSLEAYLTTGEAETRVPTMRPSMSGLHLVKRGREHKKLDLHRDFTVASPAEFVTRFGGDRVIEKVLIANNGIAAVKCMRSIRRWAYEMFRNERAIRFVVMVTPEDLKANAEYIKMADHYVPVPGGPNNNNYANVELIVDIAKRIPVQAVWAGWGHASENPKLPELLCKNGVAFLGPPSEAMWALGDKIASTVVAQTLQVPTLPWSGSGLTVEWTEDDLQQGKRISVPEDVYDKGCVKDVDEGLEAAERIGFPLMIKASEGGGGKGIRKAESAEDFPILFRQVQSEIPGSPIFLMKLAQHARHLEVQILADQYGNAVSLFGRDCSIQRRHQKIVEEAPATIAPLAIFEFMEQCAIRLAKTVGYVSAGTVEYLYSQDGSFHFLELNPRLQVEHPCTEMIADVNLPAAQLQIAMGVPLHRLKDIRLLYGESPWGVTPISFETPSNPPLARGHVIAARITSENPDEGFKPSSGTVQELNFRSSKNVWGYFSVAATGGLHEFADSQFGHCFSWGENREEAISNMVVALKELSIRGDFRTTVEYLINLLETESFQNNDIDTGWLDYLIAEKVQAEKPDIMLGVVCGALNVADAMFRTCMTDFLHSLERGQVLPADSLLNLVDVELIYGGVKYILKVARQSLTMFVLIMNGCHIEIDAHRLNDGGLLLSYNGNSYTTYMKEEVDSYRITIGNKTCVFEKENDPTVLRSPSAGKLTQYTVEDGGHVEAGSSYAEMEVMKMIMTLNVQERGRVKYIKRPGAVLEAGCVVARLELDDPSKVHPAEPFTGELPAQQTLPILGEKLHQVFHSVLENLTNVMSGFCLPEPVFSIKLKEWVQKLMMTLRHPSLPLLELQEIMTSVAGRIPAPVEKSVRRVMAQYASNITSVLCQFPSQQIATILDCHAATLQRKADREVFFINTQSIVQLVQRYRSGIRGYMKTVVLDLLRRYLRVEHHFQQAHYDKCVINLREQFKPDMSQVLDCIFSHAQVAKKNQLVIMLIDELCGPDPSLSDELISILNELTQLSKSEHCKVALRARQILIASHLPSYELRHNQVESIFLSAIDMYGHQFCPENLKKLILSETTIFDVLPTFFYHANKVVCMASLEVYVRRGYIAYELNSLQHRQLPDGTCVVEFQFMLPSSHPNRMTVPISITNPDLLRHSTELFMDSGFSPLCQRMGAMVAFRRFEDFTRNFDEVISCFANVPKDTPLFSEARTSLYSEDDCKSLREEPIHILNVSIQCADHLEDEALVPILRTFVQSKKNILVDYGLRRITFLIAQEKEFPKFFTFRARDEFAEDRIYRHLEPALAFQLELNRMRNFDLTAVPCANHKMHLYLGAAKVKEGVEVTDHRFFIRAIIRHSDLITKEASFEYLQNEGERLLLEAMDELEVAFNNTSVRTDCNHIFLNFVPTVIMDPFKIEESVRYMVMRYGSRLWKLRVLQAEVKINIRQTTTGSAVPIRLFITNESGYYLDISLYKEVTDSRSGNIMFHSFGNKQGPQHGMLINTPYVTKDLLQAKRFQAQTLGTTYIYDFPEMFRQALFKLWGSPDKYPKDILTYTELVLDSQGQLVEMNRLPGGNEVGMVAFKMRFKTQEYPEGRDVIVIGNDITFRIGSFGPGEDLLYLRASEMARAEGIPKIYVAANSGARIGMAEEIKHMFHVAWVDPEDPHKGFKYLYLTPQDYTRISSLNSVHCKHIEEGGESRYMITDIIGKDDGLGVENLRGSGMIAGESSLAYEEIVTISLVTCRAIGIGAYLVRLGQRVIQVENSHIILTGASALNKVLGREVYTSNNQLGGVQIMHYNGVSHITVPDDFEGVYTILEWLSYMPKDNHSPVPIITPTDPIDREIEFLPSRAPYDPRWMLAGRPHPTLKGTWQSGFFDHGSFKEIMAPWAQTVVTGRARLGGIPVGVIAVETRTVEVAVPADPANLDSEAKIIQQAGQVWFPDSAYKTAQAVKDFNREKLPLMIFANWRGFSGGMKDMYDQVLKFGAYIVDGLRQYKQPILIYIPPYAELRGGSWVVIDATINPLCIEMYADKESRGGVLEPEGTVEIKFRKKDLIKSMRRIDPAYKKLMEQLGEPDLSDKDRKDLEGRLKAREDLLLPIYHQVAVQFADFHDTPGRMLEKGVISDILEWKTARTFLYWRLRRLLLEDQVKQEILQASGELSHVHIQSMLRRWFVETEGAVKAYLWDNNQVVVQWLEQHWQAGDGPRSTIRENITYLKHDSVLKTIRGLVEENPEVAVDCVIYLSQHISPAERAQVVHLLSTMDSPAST
# measurementProtocol: Measurement of ACC2 inhibitory activity (malachite green, recombinant ACC2 (Nd))
# Format: biochemical
# settings: 10 μM test compound; 20 min preincubation at 30° C., 20 min reaction; read-out: ACC2 inhibitory rate at 10 μM (%)
# Description: The ACC2 inhibitory action of the compound of the present invention was evaluated by the following method. (1) Cloning of Human ACC2 Gene and Preparation of Recombinant Baculovirus Human ACC2 gene was cloned by PCR using a human skeletal muscle cDNA library (Clontech) as a template and Primer 1 and Primer 2 shown below. […]
experimentalReadout: inhibition at 10 µM (%)
The reply should contain only the number, in %.

q: Reported inhibition at 10 µM for CCOc1ccc2nc(-c3ccc(OC[C@H](C)NC(C)=O)cn3)oc2c1 : what is it?
a: 83

q: // next record CC(=O)N[C@@H](C)COc1ccc(-c2nc3ccc(OCC4CC4)cn3n2)cc1
a: 94

q: // next record CC(=O)N[C@@H](C)COc1cnc(-c2nc3ccc(OCC4CC4(F)F)cc3o2)c(F)c1 (some centres unmarked)
a: 95

q: // next record CNC(=O)N[C@@H](C)COc1ccc(-c2nc3ccc(OCC4CC4)cc3o2)nc1
a: 93

q: // next record C[C@@H](COc1ccc(-c2nc3ccc(OCC4CC4)cc3o2)nc1)NC(N)=O
a: 92

q: // next record CC(=O)N[C@@H](C)COc1ccc(C2Cc3ccc(OCC4CC4)cc3O2)nc1 (some centres unmarked)
a: 90

q: // next record CC(=O)N[C@@H](C)COc1ccc(-c2nc3ccc(OCC(C)(F)F)cc3o2)nc1
a: 100

q: // next record CC(=O)N[C@@H](C)COc1cnc(-c2nc3ccc(OCC4CC4)cc3o2)c(F)c1
a: 95
